- Study system: Alpha-2C adrenergic receptor (Homo sapiens)
- Assay details: compounds altering alpha2C-coupled GIRK flux – cell-based, HEK293 alpha2C/GIRK1/2, thallium flux, primary screen (AID 624);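 also: slope of fluorescence ratio to pre-addition baseline per second over 15 to 24 s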
- Run conditions: thallium flux BTC fluorescence, at 10 µM, actives lie on both sides
Metric name: slope
The answer should be a number; do not append a unit.

Compound	slope
O=C(O)[C@@H]1CCCN1c1ncnc2sc3c(c12)CCC3	0.00577
C=CCNC(=O)CN(c1cccc(Br)c1)S(C)(=O)=O	0.00557
Cc1cccc(N2CCN(C(=O)C3CCCN(S(=O)(=O)c4cnc[nH]4)C3)CC2C)c1 (stereo not given)	0.00647
O=c1[nH]c(/C(=N\O)c2ccccc2)no1	0.00496

As a next step, examine the compound that follows.
In plain terms, COc1ccc(S(=O)(=O)Nc2ccc(F)c(F)c2)cc1Cl has a documented slope of 0.0057
